B1: TPR 5TU (parent)
chain: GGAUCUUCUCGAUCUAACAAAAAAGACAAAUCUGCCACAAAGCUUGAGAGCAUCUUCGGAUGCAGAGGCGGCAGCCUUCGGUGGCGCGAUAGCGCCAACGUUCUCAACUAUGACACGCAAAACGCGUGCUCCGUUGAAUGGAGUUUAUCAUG

- Variants of: B1
- MEASUREMENT DESCRIPTION: polymerase ribozyme fitness, log enrichment relative to wild type (log ratio); higher = more active; in vitro selection for triplet polymerase activity
This sample holds only a part of the variants without activity.
Please mark satisfied if the recorded polymerase ribozyme fitness (log ratio) is equal to or greater than -3, and not satisfied if it falls below.

| CHANGE | CLASS NAME |
| --- | --- |
| G71C U77A U90C C103A U104G C131G | not satisfied |
| G50C G83C G88U U146A | not satisfied |
| U9A A16U C57U G70A C79A G88U C95U A119U U151A | not satisfied |
| A16C A19G G34A G71A C87G U145A U146C | not satisfied |
| A49U U55C U56A A73U C93U G117C | not satisfied |
| C38U A52G A110C | not satisfied |
| A22C G62U A73U G88U C99U C118A U144C | not satisfied |
| U82G C93U C131G G140U U146A | not satisfied |
| C36U G143A | satisfied |
| C96G A142G U145G A147U | satisfied |
| G50U A89U C93U C99U U145A | not satisfied |
| U134A A142G U144G | satisfied |
| A37C C72G C79A | not satisfied |
| A12U A47C A52C U56G A64C G86A A89G C99U | not satisfied |
| A49U C51A U55G C95A | satisfied |
| A16G A19U C93A | not satisfied |
| C99U G126A G143U | not satisfied |
| G141U U146A | satisfied |
| A16C A20G C27U A60G G117A | not satisfied |
| U9C C27U G84U G126U | not satisfied |
| A17U A30U U55C C116U | not satisfied |
| U90C C96U | not satisfied |
| A16G A110G | not satisfied |
| A21U U82G C93G | not satisfied |
| U55A C79U | satisfied |
| G62A C103U | satisfied |
| C85U A113G | satisfied |
| A20C C75A C96U C118G G141A | not satisfied |
| A39U A91U | not satisfied |
| G50U G81A C96G A142U | satisfied |
| C54A A73U C87U | not satisfied |
| A17U A21U U55A A91C C95G A98U C108G | not satisfied |
